B1: POU domain, class 3, transcription factor 1, residues 247 to 324; numbered along this chain, Q03052 (parent)
chain: EDAPSSDDLEQFAKQFKQRRIKLGFTQADVGLALGTLYGNVFSQTTICRFEALQLSFKNMCKLKPLLNKWLEETDSSS

# Variants of: B1
# assay_notes: abundance fitness (aPCA) (normalised: wild type 0, dead -1); higher = more abundant; growth selection in yeast, the domain comes from the species named
# experimental_conditions: Homo sapiens
Listed next: entries and their corresponding abundance fitness.

The examples below pair each entry with its known result.
A52N 0.23
G31M -0.494
T74K 0.04

stdin: Using the record for "S78V" , state its measured abundance fitness.
stdout: 0.021

stdin: Using the record for "F50M" , state its measured abundance fitness.
stdout: -0.597

stdin: Using the record for "N59Q" , state its measured abundance fitness.
stdout: -0.025

stdin: Using the record for "L37M" , state its measured abundance fitness.
stdout: 0.097

stdin: Using the record for "N59A" , state its measured abundance fitness.
stdout: 0.08

stdin: Using the record for "Q44C" , state its measured abundance fitness.
stdout: -0.515

stdin: Using the record for "L63G" , state its measured abundance fitness.
stdout: -0.643

stdin: Using the record for "E51K" , state its measured abundance fitness.
stdout: -0.414

stdin: Using the record for "W70I" , state its measured abundance fitness.
stdout: -0.707

stdin: Using the record for "R20G" , state its measured abundance fitness.
stdout: -0.896
